- System: P. aeruginosa las AHL-mediated pathway (PlasI-lacZ reporter)
- protocol.text: Anti-quorum sensing β-galactosidase assay, las biomonitor (PlasI-lacZ with lasR expressed in E. coli DH5α)
- Type: cell-based, Pseudomonas aeruginosa
- condition.context: tested at 50-200 μg/mL against 2 μM 3-oxo-C12-AHL
quantity.kind: effect on las activity / lasI promoter expression (in words)

CCCCCCCCCCCCSCC1CCC(O)N1 (centres unmarked) [Compound 10d, 5-(Dodecylthiomethyl)pyrrolidin-2-ol] | moderate activity
CCCCCCCCCSCC1CCC(O)N1 (centres unmarked) [Compound 10c, 5-(Nonanylthiomethyl)pyrrolidin-2-ol] | moderate activity

* * *

- Test system: P. aeruginosa rhl AHL-mediated pathway (PrhlA-lacZ reporter)
- protocol.text: Anti-quorum sensing β-galactosidase assay, rhl biomonitor (PrhlA-lacZ with rhlR expressed in E. coli)
- Assay type: cell-based, Pseudomonas aeruginosa
- condition.context: Escherichia coli, 4 h, read-out: Percent Activity ± Standard Deviation (PrhlA-lacZ expression relative to DMSO treated control)
quantity.kind: activity at 150 µg/mL (%)
Answers are plain numbers, in %.

CCCCCCSCC1NC(O)C(O)C1O (stereo not drawn) | 109

Lab note: each compound below needs its activity at 150 µg/mL filled in.
1. CCCSCC1CCC(=O)N1 (stereo not drawn)
2. CCCCCCCCCCCCSCC1CCC(O)N1 (stereo not drawn) [Compound 10d, 5-(Dodecylthiomethyl)pyrrolidin-2-ol]

1. 104
2. 91

Lab note: each compound below needs its activity at 150 µg/mL filled in.
1. CCCCCCCCCCCCSCC1CCC(=O)N1 (stereo not drawn)
2. CCCCCCSCC1NC(=O)C(O)C1O (stereo not drawn)
3. CCCCCCCCCSCC1NC(O)C(O)C1O (stereo not drawn)

[109, 148, 116]

* * *

- Test system: P. aeruginosa rhl AHL-mediated pathway (PrhlA-lacZ reporter)
- protocol.text: Anti-quorum sensing β-galactosidase assay, rhl biomonitor (PrhlA-lacZ with rhlR expressed in E. coli)
- Assay type: cell-based, Pseudomonas aeruginosa
- condition.context: Escherichia coli, 4 h, read-out: Percent Activity ± Standard Deviation (PrhlA-lacZ expression relative to DMSO treated control)
quantity.kind: activity at 50 µg/mL (%)
Give bare numbers, in %.

Observe how each entry below is paired with its result.
CCCCCCCCCSCC1NC(O)C(O)C1O (stereo not drawn) | 98
CCCCCCSCC1NC(O)C(O)C1O (stereo not drawn) | 94
CCCCCCCCCSCC1NC(=O)C(O)C1O (stereo not drawn) | 106
CCCSCC1CCC(O)N1 (stereo not drawn) [Compound 10a, 5-(Propylthiomethyl)pyrrolidin-2-ol] | 121
CCCCCCCCCSCC1CCC(O)N1 (stereo not drawn) [Compound 10c, 5-(Nonanylthiomethyl)pyrrolidin-2-ol] | 93
CCCCCCCCCSCC1CCC(=O)N1 (stereo not drawn) | 95

Lab note: each molecule below needs its activity at 50 µg/mL filled in.
1. CCCSCC1CCC(=O)N1 (stereo not drawn)
2. CCCCCCSCC1CCC(O)N1 (stereo not drawn) [Compound 10b, 5-(Hexylthiomethyl)pyrrolidin-2-ol]
3. CCCCCCSCC1NC(=O)C(O)C1O (stereo not drawn)
4. CCCCCCCCCCCCSCC1CCC(=O)N1 (stereo not drawn)
5. CCCCCCCCCCCCSCC1CCC(O)N1 (stereo not drawn) [Compound 10d, 5-(Dodecylthiomethyl)pyrrolidin-2-ol]
6. CCCCCCSCC1CCC(=O)N1 (stereo not drawn)

1. 104
2. 26
3. 132
4. 103
5. 98
6. 126
